Ref: ChEMBL document CHEMBL4304826

- measurement-protocol: in vivo
- conditions-used: Beagle, dog, plasma, po, 3 mg/kg
measured-attribute: AUC(0-inf) (ng·h/mL)

1) Cc1ccc2nc(CSc3nnc(NC(=O)Nc4cccc(C(F)(F)F)c4)s3)cc(=O)n2c1 :: 1790

====

- measurement-protocol: in vitro
- conditions-used: dog, MDCK
measured-attribute: Papp B→A (×10⁻⁶ cm/s)

1) Cc1ccc2nc(CSc3nnc(NC(=O)Nc4cccc(C(F)(F)F)c4)s3)cc(=O)n2c1 :: 3.73

====

- measurement-protocol: in vivo
- conditions-used: Beagle, dog, plasma, iv, 0.2 mg/kg
measured-attribute: half-life

1) Cc1ccc2nc(CSc3nnc(NC(=O)Nc4cccc(C(F)(F)F)c4)s3)cc(=O)n2c1 :: 37.8 min

====

- measurement-protocol: in vivo
- conditions-used: Beagle, dog, plasma, po, 3 mg/kg
measured-attribute: Cmax (ng/mL)

1. Cc1ccc2nc(CSc3nnc(NC(=O)Nc4cccc(C(F)(F)F)c4)s3)cc(=O)n2c1 :: 1140

====

- measurement-protocol: in vivo
- conditions-used: Beagle, dog, plasma, iv, 0.2 mg/kg
measured-attribute: clearance (mL/min/kg)

1. Cc1ccc2nc(CSc3nnc(NC(=O)Nc4cccc(C(F)(F)F)c4)s3)cc(=O)n2c1 :: 4.43

====

- measurement-protocol: in vivo
- conditions-used: Beagle, dog, plasma, iv, 0.2 mg/kg
measured-attribute: AUC(0-inf) (ng·h/mL)

1) Cc1ccc2nc(CSc3nnc(NC(=O)Nc4cccc(C(F)(F)F)c4)s3)cc(=O)n2c1 :: 755

====

- measurement-protocol: in vivo
- conditions-used: Beagle, dog, plasma, po, 3 mg/kg
measured-attribute: half-life (min)

1. Cc1ccc2nc(CSc3nnc(NC(=O)Nc4cccc(C(F)(F)F)c4)s3)cc(=O)n2c1 :: 39
